target: α4β2 nAChR (Rattus norvegicus, UniProt P09483+P12390); construct: expressed in transfected cells; host or cells: Xenopus laevis oocytes injected with cRNA; assay: cell-based; assay type: cell-based; settings: IC50 (95% CI), Peak, α4β2, VH −80 mV, peak current, ACh 10 μM
Sequence (P09483 31-630): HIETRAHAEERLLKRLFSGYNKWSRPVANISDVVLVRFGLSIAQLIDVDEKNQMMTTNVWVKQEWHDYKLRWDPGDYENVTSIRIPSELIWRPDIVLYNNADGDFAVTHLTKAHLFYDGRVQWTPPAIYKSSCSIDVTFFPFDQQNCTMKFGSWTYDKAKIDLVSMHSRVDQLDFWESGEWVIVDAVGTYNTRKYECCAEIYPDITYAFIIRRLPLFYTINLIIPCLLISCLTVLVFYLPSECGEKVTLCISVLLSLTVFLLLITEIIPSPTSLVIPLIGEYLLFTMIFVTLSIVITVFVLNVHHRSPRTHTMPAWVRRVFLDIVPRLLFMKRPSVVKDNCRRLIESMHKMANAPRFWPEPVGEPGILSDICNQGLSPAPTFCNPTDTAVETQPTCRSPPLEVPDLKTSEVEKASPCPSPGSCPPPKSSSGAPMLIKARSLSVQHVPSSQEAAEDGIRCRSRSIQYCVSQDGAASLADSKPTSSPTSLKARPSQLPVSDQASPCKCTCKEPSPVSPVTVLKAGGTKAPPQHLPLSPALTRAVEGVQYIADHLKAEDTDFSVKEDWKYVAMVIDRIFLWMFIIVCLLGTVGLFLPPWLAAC
Sequence (P12390 25-500): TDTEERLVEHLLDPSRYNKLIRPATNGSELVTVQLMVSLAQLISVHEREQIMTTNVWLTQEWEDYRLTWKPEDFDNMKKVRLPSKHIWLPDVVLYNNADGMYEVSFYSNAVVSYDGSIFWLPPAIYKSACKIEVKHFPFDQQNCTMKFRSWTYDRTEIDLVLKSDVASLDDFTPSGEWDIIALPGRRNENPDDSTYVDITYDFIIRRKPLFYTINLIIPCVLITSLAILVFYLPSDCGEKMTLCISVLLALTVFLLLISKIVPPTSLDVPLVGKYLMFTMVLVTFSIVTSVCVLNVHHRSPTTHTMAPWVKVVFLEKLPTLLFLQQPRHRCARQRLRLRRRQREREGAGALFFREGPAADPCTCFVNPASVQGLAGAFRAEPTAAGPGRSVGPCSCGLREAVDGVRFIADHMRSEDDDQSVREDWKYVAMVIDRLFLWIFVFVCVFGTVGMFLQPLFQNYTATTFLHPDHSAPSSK
outcome measure: IC50 (µM)

structure notation	target under test	unit of measurement	readout value
CCCC(=O)N[C@@H](Cc1ccc(O)cc1)C(=O)NCCCCCCCCCCCCN	α4β2 nAChR (Rattus norvegicus, UniProt P09483+P12390)	µM	2.17
CCCC(=O)N[C@@H](Cc1ccc(O)cc1)C(=O)NCCCNCCCCNCCCN	α4β2 nAChR (Rattus norvegicus, UniProt P09483+P12390)	µM	0.93

----------
target: α1β1γδ nAChR (Mus musculus, UniProt P02716+P04756+P04760+P09690); construct: expressed in transfected cells; host or cells: Xenopus laevis oocytes injected with cRNA; experiment: cell-based; type: cell-based; conditions: IC50 (95% CI), Peak, α1β1γδ, VH −100 mV, peak current, ACh 10 μM
Sequence (P04756 21-457): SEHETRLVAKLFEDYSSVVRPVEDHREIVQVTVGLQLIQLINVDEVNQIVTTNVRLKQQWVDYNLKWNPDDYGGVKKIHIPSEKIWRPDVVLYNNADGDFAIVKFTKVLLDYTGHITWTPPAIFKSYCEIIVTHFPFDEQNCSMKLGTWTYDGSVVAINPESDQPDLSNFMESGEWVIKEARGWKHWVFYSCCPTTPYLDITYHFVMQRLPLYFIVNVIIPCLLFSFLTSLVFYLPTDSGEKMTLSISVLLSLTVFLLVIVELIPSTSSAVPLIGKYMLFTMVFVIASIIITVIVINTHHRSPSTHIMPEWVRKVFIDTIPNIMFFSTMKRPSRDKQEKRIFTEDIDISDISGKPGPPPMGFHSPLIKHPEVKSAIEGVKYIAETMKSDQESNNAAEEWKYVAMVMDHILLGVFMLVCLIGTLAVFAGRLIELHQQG
Sequence (P09690 24-501): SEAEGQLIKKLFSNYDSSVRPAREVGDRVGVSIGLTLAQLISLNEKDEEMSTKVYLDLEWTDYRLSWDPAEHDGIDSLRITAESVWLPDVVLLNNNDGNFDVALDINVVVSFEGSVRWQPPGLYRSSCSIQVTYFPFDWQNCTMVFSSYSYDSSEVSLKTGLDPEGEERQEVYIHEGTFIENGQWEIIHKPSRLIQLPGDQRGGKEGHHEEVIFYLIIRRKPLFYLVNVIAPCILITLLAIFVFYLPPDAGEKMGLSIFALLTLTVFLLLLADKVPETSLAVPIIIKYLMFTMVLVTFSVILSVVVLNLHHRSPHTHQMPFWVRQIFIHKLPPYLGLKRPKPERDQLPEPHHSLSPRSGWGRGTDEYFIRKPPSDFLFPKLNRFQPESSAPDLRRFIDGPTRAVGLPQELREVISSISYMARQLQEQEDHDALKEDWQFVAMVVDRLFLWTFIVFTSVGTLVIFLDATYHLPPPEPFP
Sequence (P04760 23-519): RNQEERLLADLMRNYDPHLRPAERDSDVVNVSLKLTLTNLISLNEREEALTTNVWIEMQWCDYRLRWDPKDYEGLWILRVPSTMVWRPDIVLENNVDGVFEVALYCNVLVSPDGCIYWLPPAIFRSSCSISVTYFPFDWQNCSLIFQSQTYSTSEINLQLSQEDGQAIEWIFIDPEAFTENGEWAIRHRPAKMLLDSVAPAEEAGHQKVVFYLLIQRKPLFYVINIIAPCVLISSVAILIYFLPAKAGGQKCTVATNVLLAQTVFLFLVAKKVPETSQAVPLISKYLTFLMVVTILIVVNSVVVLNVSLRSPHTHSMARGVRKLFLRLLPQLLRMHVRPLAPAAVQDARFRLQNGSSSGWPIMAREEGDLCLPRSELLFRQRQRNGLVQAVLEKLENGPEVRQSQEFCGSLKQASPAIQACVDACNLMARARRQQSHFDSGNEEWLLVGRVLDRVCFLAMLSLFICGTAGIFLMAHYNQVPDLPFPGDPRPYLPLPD
Sequence (P02716 25-520): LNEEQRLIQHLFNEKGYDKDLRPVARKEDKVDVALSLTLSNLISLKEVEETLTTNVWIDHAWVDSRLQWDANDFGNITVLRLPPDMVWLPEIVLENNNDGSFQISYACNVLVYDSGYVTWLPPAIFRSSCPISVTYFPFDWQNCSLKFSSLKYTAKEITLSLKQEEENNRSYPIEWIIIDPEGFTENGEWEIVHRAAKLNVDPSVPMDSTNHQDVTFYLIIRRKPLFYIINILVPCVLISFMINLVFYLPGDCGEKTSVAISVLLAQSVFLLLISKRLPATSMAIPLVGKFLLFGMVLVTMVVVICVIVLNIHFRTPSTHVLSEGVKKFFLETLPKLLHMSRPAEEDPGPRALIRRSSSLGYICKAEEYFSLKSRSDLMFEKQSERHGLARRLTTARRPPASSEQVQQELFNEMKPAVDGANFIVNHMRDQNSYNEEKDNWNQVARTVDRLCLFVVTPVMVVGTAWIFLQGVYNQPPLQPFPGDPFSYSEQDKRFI
The following compounds are listed with their measured IC50 values.

compound	IC50
CCCC(=O)N[C@@H](Cc1ccc(O)cc1)C(=O)NCCCNCCCCNCCCN [PhTX-343]	3.26 µM
CCCC(=O)N[C@@H](Cc1ccc(O)cc1)C(=O)NCCCCCCCCCCCCN [PhTX-12]	5.02 µM

----------
biological target: α3β4(F255V) nAChR (Rattus norvegicus, UniProt P04757+P12392, F275V); construct: expressed in transfected cells; host or cells: Xenopus laevis oocytes injected with cRNA; test: Two-electrode voltage clamp of ACh currents, α3β4(F255V) nAChRs expressed in Xenopus oocytes; format: cell-based; conditions: α3β4(F255V), VH −60 mV, peak current, ACh 100 μM; read-out: IC50 (95% CI), Peak
Sequence (P04757 26-499): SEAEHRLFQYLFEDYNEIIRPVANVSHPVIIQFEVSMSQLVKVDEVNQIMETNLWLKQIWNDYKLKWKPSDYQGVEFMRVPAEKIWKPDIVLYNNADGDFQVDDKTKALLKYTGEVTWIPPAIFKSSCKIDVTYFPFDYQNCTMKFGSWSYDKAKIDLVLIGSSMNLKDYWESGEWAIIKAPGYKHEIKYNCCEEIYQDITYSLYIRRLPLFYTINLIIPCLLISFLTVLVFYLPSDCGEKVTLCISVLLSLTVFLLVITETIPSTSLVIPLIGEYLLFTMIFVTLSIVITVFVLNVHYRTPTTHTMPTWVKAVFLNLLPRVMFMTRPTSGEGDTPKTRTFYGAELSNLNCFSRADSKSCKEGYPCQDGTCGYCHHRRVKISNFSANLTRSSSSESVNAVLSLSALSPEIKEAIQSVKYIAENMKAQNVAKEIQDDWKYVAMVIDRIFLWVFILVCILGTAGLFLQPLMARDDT
Sequence (P12392 21-495 F275V): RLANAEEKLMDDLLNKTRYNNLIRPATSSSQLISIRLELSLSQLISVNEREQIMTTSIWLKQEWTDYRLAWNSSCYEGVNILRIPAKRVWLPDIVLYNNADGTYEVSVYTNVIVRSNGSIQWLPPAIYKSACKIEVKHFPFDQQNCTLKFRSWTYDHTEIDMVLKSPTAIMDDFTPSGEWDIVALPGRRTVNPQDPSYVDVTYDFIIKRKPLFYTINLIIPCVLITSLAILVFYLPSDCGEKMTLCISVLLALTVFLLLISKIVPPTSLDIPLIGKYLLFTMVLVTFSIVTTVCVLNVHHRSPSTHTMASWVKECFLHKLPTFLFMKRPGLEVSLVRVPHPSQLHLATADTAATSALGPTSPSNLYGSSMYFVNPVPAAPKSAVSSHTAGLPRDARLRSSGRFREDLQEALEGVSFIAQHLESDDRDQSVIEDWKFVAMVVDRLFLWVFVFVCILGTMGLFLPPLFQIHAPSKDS
pIC50: −log10 of the molar value.
The following compounds are listed with their measured pIC50 values.
outcome measure: pIC50

structure notation	outcome measure	readout value
CCCC(=O)N[C@@H](Cc1ccc(O)cc1)C(=O)NCCCNCCCCNCCCN	pIC50	6.51
CCCC(=O)N[C@@H](Cc1ccc(O)cc1)C(=O)NCCCCCCCCCCCCN	pIC50	5.79

----------
molecular target: α4β2(V253F) nAChR (Rattus norvegicus, UniProt P09483+P12390, V277F); construct: expressed in transfected cells; host or cells: Xenopus laevis oocytes injected with cRNA; assay: Two-electrode voltage clamp of ACh currents, α4β2(V253F) nAChRs expressed in Xenopus oocytes; type: cell-based; details: α4β2(V253F), VH −60 mV, peak current, ACh 10 μM; read-out: IC50 (95% CI), Peak
Sequence (P12390 25-500 V277F, one chain of several): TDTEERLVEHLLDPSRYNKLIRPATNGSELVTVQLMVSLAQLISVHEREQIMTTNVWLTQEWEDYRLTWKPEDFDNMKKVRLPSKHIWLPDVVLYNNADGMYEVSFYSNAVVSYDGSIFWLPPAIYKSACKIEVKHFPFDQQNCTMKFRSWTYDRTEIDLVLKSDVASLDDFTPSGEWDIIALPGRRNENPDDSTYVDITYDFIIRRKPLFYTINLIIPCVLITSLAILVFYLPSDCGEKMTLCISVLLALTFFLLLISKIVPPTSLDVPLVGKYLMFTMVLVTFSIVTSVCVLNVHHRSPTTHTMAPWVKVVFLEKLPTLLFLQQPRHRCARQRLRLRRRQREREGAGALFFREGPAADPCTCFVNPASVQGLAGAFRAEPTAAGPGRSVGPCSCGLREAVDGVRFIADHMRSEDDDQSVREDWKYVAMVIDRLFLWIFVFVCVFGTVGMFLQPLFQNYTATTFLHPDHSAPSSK
pIC50: −log10 of the molar value.
The following compounds are listed with their measured pIC50 values.

structure notation	target under test	pIC50
CCCC(=O)N[C@@H](Cc1ccc(O)cc1)C(=O)NCCCNCCCCNCCCN	α4β2(V253F) nAChR (Rattus norvegicus, UniProt P09483+P12390, V277F)	6.21
CCCC(=O)N[C@@H](Cc1ccc(O)cc1)C(=O)NCCCCCCCCCCCCN	α4β2(V253F) nAChR (Rattus norvegicus, UniProt P09483+P12390, V277F)	5.65

Origin of the recorded values: paper PMC5128878
